Experiment: Drug concentration in male ICR mouse brain at 10 mg/kg, ip measured after 1 hr
Assay type: ADME, organism-based
Conditions: read-out: Ct
MEASURED_ATTRIBUTE: concentration at 1 h

Cl.Cl.O=C(NCc1ccc(OCC(O)CN2CCN(c3noc4cc(F)ccc34)CC2)cc1)N(Cc1ccc(F)cc1)C1CCNCC1 (stereo unspecified): < 0.5 ng/g

###

Assay: Microsomal stability in rat liver microsomes assessed as parent compound remaining measured after 30 mins
Format: ADME, Microsome
Conditions: read-out: Stability
MEASURED_ATTRIBUTE: remaining at 0.5 h (%)

Cl.Cl.O=C(NCc1ccc(OCC(O)CN2CCN(c3noc4cc(F)ccc34)CC2)cc1)N(Cc1ccc(F)cc1)C1CCNCC1 (stereo unspecified): 95.3
